Test: Rucaparib plasma pharmacokinetics in patients
Type: in vivo, human
Details: human, plasma, oral, 400 mg, Tmax, mean (±SD), first administration, day −7, 400 mg BID, n 3
assay_endpoint: Tmax (h)
Give bare numbers, in h.

Note Tmax for the molecule shown: CNCc1ccc(-c2[nH]c3cc(F)cc4c3c2CCNC4=O)cc1 [rucaparib]
3.4

###

Experiment: Rucaparib plasma pharmacokinetics in patients
Format: in vivo, human
Conditions: human, plasma, oral, 600 mg, Tmax, mean (±SD), first administration, day −7, 600 mg BID, n 3
assay_endpoint: Tmax (h)
Numbers only, in h.

Supply recorded Tmax for CNCc1ccc(-c2[nH]c3cc(F)cc4c3c2CCNC4=O)cc1 here.
3.4

###

Test: Rucaparib plasma pharmacokinetics in patients
Assay type: in vivo, human
Settings: human, plasma, oral, Tmax, mean (±SD), steady state, day 1 (bevacizumab infusion), 400 mg BID, n 3
assay_endpoint: Tmax

Dear colleague, please send me the reported Tmax for CNCc1ccc(-c2[nH]c3cc(F)cc4c3c2CCNC4=O)cc1 when you can.
4.6 h

###

Assay: Rucaparib plasma pharmacokinetics in patients
Assay type: in vivo, human
Conditions: human, plasma, oral, Tmax, mean (±SD), steady state, day 1 (bevacizumab infusion), 500 mg BID, n 3
assay_endpoint: Tmax (h)
Numbers only, in h.

Quick one: give measured Tmax for CNCc1ccc(-c2[nH]c3cc(F)cc4c3c2CCNC4=O)cc1
1.7

###

Assay: Rucaparib plasma pharmacokinetics in patients
Assay type: in vivo, human
Conditions: human, plasma, oral, 500 mg
assay_endpoint: Cmax (ng/mL)
Numbers only, in ng/mL.

Note down Cmax recorded for CNCc1ccc(-c2[nH]c3cc(F)cc4c3c2CCNC4=O)cc1 [rucaparib]
900

###

Assay: Rucaparib plasma pharmacokinetics in patients
Format: in vivo, human
Details: human, plasma, oral, Tmax, mean (±SD), steady state, day 1 (bevacizumab infusion), 600 mg BID, n 3
assay_endpoint: Tmax (h)
One number for each entry, in h.

Annotate the compound CNCc1ccc(-c2[nH]c3cc(F)cc4c3c2CCNC4=O)cc1 [rucaparib] with its measured Tmax.
3
